# assayed.target: human neprilysin (EC 3.4.24.11; NEP) (Homo sapiens (Human))
# experiment: In vitro enzyme inhibition assay at human NEP (fluorogenic peptide substrate)
# stated.conditions: pKi values at human NEP, recombinant human NEP
readout: Ki

>>> df
                                   compound                            assayed_target           value
0  O=C(N[C@H](Cc1ccc(-c2ccccc2)cc1)CC(O)C(=O)O)c1ccc(O)nn1 (stereo partly shown) [Example 13-5]  human neprilysin (EC 3.4.24.11; NEP) (Homo sapiens (Human))  12.6 to 100 nM
1  CC(C)c1cc(C(=O)N[C@H](Cc2ccc(-c3ccccc3)cc2)CC(O)C(=O)O)[nH]n1 (stereo partly shown) [Example 15-73]  human neprilysin (EC 3.4.24.11; NEP) (Homo sapiens (Human))  12.6 to 100 nM
2  Cn1cc(-c2cc(C(=O)N[C@H](Cc3ccc(-c4ccccc4)cc3)C[C@@H](O)C(=O)O)on2)cn1 [Example 12-10]  human neprilysin (EC 3.4.24.11; NEP) (Homo sapiens (Human))   1.26 to 10 nM

Proceed to the following item.
For the compound CCCCc1cc(C(=O)N[C@H](Cc2ccc(-c3ccccc3)cc2)C[C@@H](O)C(=O)O)[nH]n1 [Example 15-112] , report Ki.
1.26 to 10 nM

###

# assayed.target: human neprilysin (EC 3.4.24.11; NEP) (Homo sapiens (Human), UniProt P08473)
# Sequence (P08473 52-750): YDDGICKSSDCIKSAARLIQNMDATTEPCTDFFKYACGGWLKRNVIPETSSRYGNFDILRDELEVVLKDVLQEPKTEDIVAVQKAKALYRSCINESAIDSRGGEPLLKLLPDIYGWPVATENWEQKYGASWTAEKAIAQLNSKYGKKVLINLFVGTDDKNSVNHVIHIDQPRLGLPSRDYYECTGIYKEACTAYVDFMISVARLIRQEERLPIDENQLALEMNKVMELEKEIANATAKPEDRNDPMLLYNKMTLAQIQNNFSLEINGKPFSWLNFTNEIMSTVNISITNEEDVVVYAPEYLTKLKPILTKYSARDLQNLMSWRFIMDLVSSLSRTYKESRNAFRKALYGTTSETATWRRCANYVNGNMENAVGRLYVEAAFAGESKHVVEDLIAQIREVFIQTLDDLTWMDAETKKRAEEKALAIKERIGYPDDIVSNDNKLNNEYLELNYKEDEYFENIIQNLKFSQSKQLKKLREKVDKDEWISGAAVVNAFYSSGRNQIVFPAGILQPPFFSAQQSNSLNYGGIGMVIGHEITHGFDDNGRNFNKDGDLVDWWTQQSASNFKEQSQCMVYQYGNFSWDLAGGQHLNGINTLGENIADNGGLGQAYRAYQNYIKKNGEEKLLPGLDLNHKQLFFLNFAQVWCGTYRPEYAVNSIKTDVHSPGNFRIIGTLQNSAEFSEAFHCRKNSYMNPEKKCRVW
# experiment: In vitro enzyme inhibition assay at human NEP (fluorogenic peptide substrate)
# stated.conditions: pKi values at human NEP, recombinant human NEP
A collection of molecules and their measured Ki

Sample answers from the record:
In [3]: df
Out[3]:
                                   molecule  readout           value
0  O=C(O)c1ccc(Cn2nnc3cc(C(=O)N[C@H](Cc4ccc(-c5ccccc5)cc4)C[C@H](O)C(=O)O)ccc32)cc1 [Example 11-2]       Ki  12.6 to 100 nM
1  CC(=O)c1cc(C(=O)N[C@H](Cc2ccc(-c3ccccc3)cc2)C[C@@H](O)C(N)=O)[nH]n1 [Example 15-108]       Ki  12.6 to 100 nM
2  O=C(N[C@H](Cc1ccc(-c2ccccc2)cc1)C[C@@H](O)C(=O)O)c1n[nH]c(O)n1 [Example 10-9]       Ki   1.26 to 10 nM
3  O=C(N[C@H](Cc1ccc(-c2ccccc2)cc1)CC(O)C(=O)O)c1cc(-c2cnccn2)[nH]n1 (some centres unmarked) [Example 15-22]       Ki   1.26 to 10 nM
4  O=C(NCCO)c1cc(C(=O)N[C@H](Cc2ccc(-c3ccccc3)cc2)CC(O)C(=O)O)[nH]n1 (some centres unmarked) [Example 15-70]       Ki   1.26 to 10 nM

Fill: Ki (human neprilysin (EC 3.4.24.11; NEP) (Homo sapiens (Human), UniProt P08473)) for this molecule COc1cc(C(=O)N[C@H](Cc2ccc(-c3ccccc3)cc2)C[C@@H](O)C(=O)O)on1 [Example 12-3]
1.26 to 10 nM

Find Ki for O=C(N[C@H](Cc1ccc(-c2ccccc2)cc1)C[C@@H](O)C(=O)O)c1cc(-c2ccc(Cl)c(Cl)c2)no1 [Example 12-12] on human neprilysin (EC 3.4.24.11; NEP) (Homo sapiens (Human), UniProt P08473) and write it down.
1.26 to 10 nM
